Reported INHIBITION by item:
# Test system: Plasmodium berghei
# protocolText: Screen against P. berghei liver stage (PbLuc), transformed with Luciferase, at 10uM
# Assay type: functional, HepG2
# testContext: tested at 10 uM
The whole screen tested about 69,000 compounds, of which about 8,600 (12%) showed an effect of 50% or more. Many of the other results were omitted from the sample, so strong results are more common in it than they were.
testReadout: INHIBITION

- COc1cccc(CNc2cc(C)nc(-c3ccncc3)n2)c1OC: 85.2%
- COCCN1C[C@@H](C)[C@@]2(COCCN(C(=O)c3cccs3)C2)C1: 20.1%
- Cc1nc([C@@H]2C[C@@H]3CCN(C(=O)Cc4cccs4)C[C@H]3O2)no1: 11.6%
- CS(=O)(=O)N1CCOCC2(CCN(C(=O)c3ccco3)CC2)C1: 27.6%
- CCCS(=O)(=O)N1CC(=O)N(Cc2ccccc2OC)CC(O)C1 (configuration not stated): 41.1%
- COCCN1CCC2(COCCN(C(=O)Cc3cccs3)C2)C1 (configuration not stated): -58.7%
- O=C(NCC1COCc2c(-c3ccncc3)nnn2C1)[C@H]1CCCO1 (some centres not stated): -34.6%

---

Below, each entry is listed with its recorded INHIBITION.
# System: Plasmodium berghei
# protocolText: Screen against P. berghei liver stage (PbLuc), transformed with Luciferase, at 10uM
# Assay type: functional, HepG2
# testContext: tested at 10 uM
The whole screen tested about 69,000 compounds, of which about 8,600 (12%) showed an effect of 50% or more. The sample as a whole holds a higher share of strong results than the screen did.
testReadout: INHIBITION (%)

- O=C1CCN(C(=O)NCCCc2ccc(Cl)cc2Cl)CCN1: -12.1
- O=C(CN1CCCC(c2ncc[nH]2)C1)NCCCN1CCCCCC1=O (configuration not stated): 45.4
- CS(=O)(=O)NC[C@@H]1OC[C@H]2CN(C(=O)c3ccccn3)CC[C@H]21: -2.17
- CC(C)Oc1ncc(C(=O)N2CCC(NC(=O)C3CC3)CC2)cc1Cl: -13.2
- COc1ncccc1NC(=O)NC(CCCO)c1ccccc1 (configuration not stated): 25.4
- O=C(c1cnc(OCC(F)(F)F)c(Cl)c1)N1CCc2ccc(O)cc2C1: 70.9
- Cc1noc(C(C)C)c1C(=O)N1CCC(n2cccn2)CC1: 26.5
- Cc1cc(=O)n2nc(Oc3cccc(I)c3)sc2n1: 35.7
- Cc1ccc(C2COCCN2C(=O)c2ccsc2)o1 (configuration not stated): 3.77
- O=S1(=O)NCC2(CCN(c3ncccn3)CC2)COc2ccccc21: -21.2
- CN1CCCC1c1cncc(C(=O)NCCN2CCCC2)n1 (configuration not stated): -40.1
- Cc1cc(C)c2nc(C)c(C(=O)N3CCC(N4CCCC4)CC3)cc2c1: 31
- O=C(CCc1ccccn1)N1CCCN(C(=O)CC2CCCC2)CC1: 21.5
- Cc1cccc(OCCCN2CCC(N(C)Cc3noc(C)n3)C2)c1 (configuration not stated): 1.75
- c1ccc(Cc2noc(-c3ccc(NCC4CCCCO4)nc3)n2)cc1 (configuration not stated): 26
- O=C(NC1CCN(C2CC2)CC1)c1cn(-c2ccc(Cl)cc2)nn1: -6.51
- Cc1cc2n(n1)CC(CNCc1ccccc1-n1cccn1)CN2 (configuration not stated): -18.605

---

# System: Plasmodium berghei
# protocolText: Screen against P. berghei liver stage (PbLuc), transformed with Luciferase, at 10uM
# Assay type: functional, HepG2
# testContext: tested at 10 uM
Among all 69,000 compounds or so, about 8,600 (12%) showed an effect of 50% or more. The full list was thinned out, with strong results kept by preference.
INHIBITION by entry:
testReadout: INHIBITION (%)

* Cc1ccc(CN(CCCn2ccnc2)Cc2[nH]cnc2C)s1 | 9.93
* COCc1cccc(C(=O)N2C[C@@H]3CC[C@H]2CN(Cc2cscn2)C3)n1 | -38.6
* Cc1ccc(CN(CCCn2ccnc2)Cc2c[nH]nc2C(C)(C)C)s1 | 70.1
* c1cncc(CNC2CCc3ncnn3C2)c1 (centres undefined) | 33.3
* CC(Nc1cccc(CN2CCOC2=O)c1)C(=O)Nc1ccccc1 (centres undefined) | 35.4
* Cc1ccc(CN(CCCn2ccnc2)Cc2ccccc2O)s1 | 54.4
* Cc1noc(CN2CCN(C(=O)c3ccccn3)CC2)n1 | 37.3
* O=C(C[C@@H]1COC[C@H]2CN(C3CCOCC3)C[C@@H]12)Nc1cnccn1 | 42.5
* CN1CCN(c2ncnc3c2CCN(c2ncc(F)cn2)CC3)CC1 | 24.9

---

# Tested on: Plasmodium berghei
# protocolText: Screen against P. berghei liver stage (PbLuc), transformed with Luciferase, at 10uM
# Format: functional, HepG2
# testContext: tested at 10 uM
In all, about 69,000 compounds went through this assay and about 8,600 (12%) showed an effect of 50% or more. This is one part of a sample in which strong results are shown more often than they occur.
Response key: 1 (yes) means INHIBITION >= 40%; 0 (no) means INHIBITION < 40%.

* COCCCNc1c(-c2ccc(C)cc2)c(=O)c1=O | 0 (no)
* CCc1nc2n(n1)CC(NCC1=Cc3ccc(OC)cc3OC1)CC2 (stereo not given) | 0 (no)
* O=C(Nc1cccc2c1CCCC2)c1cccc(CN2CC[C@H](O)C2)c1 | 0 (no)
* COc1ccc2c(c1)OCC(CNC1CCc3nc(C)nn3C1)=C2 (stereo not given) | 1 (yes)
* COCCNc1c(-c2ccc(Cl)cc2)c(=O)c1=O | 0 (no)
* CS(=O)(=O)NC[C@H]1OC[C@@H]2CCN(Cc3ccc(F)cc3)C[C@@H]21 | 0 (no)
* CCCOc1cccc(C(=O)Oc2cc(=O)n3cccc(C)c3n2)c1 | 0 (no)
* COc1ccc(-c2nc(CNC3CCc4nc(C)nn4C3)no2)cc1 (stereo not given) | 1 (yes)
* O=C(c1ccccc1)N1CCO[C@@H]2CN(c3cnccn3)C[C@@H]2C1 | 0 (no)
* O=C(Nc1ccccc1CCO)c1cccc(CN2CC[C@H](O)C2)c1 | 0 (no)

---

Listed next: entries and their corresponding INHIBITION.
# System: Plasmodium berghei
# protocolText: Screen against P. berghei liver stage (PbLuc), transformed with Luciferase, at 10uM
# Format: functional, HepG2
# testContext: tested at 10 uM
About 8,600 (12%) of roughly 69,000 compounds showed an effect of 50% or more. This excerpt belongs to a sample that is enriched for strong results.
testReadout: INHIBITION (%)

- CCN1CCC(N2CCC(c3nc(C)cc(C)n3)C2)CC1 (stereo not given): 23.9
- c1ccc(OCCN2CCCCC2Cn2cncn2)cc1 (stereo not given): 40.9
- NC(=O)CN1CCc2c(Br)ccc(F)c2C1: -15
- Cn1cc(C2CCCN2C(=O)c2cnc(-c3cccs3)s2)cn1 (stereo not given): 37.7
- Cc1cccc(CN2CC3(CCN(C(=O)N(C)C)CC3)OCC2=O)n1: 30.3

---

// values below are reported INHIBITION
# System: Plasmodium berghei
# protocolText: Screen against P. berghei liver stage (PbLuc), transformed with Luciferase, at 10uM
# Type: functional, HepG2
# testContext: tested at 10 uM
Out of some 69,000 compounds screened, about 8,600 (12%) showed an effect of 50% or more. For the sample, strong results were picked, then their nearest neighbours and some compounds at random.
testReadout: INHIBITION (%)

• CCC(C(=O)NCc1ccn(-c2ccc(F)cc2)n1)N1CCCC1=O (stereo unspecified) = 2.82
• c1cncc(CN2CCCC3(COCCN(c4cnccn4)C3)C2)c1 (stereo unspecified) = 12.7
• Cc1nc(N(C)C)nc(C)c1NC(=O)c1ccccc1C(F)(F)F = 46.3
• CCc1nc(NC2CC(=O)N(CC3CCCCC3)C2)ncc1C (stereo unspecified) = 2.97
• Cc1ccc(-c2ccnc(N3CCC4(CC3)CNC(=O)C4)n2)c(C)n1 = 68.9
• OCCN1CCCC(c2nccnc2Oc2ccc(F)cc2)C1 (stereo unspecified) = 20.8
• COc1ccc(C(C(=O)O)N(C)Cc2c(C)nn(C)c2C)c(C)c1 (stereo unspecified) = 26.9
• NC(=O)c1ccc(N2CCN(CCCc3cn[nH]c3)CC2)cc1 = -62.8
• CCC(C)N(Cc1cnc(NCC(=O)O)nc1)Cc1ccsc1 (stereo unspecified) = 41.3
• Cc1n[nH]c(-c2ccc(NC(=O)C(C)N3CCN(C)CC3)cc2)n1 (stereo unspecified) = -27.4
• CN(Cc1ncc(C(C)(C)C)o1)CC1CCCN1c1cccnn1 (stereo unspecified) = 86.6
• Cc1noc([C@H]2C[C@@H]3CCN(C(=O)N(C)C)C[C@H]3O2)n1 = 54.6
• NC(=O)c1c(NC(=O)C2CCCO2)sc2c1CCc1ccccc1-2 (stereo unspecified) = -57.9
• Cc1nn(C)c(C)c1C(=O)N1CCOCC1CC(=O)c1ccco1 (stereo unspecified) = 17.4
• CCC(C(=O)Nc1ccc2c(C)n[nH]c2c1)N1CCCC1=O (stereo unspecified) = 53.6
• c1coc(CN2CCCn3c(CN4CCOCC4)nnc3C2)c1 = -4.26
• Cc1nnc(CN(C)CC2CCCN2c2cccnn2)o1 (stereo unspecified) = 19.5
• N#Cc1cc2cc(Cl)cnc2nc1O = -26.3
• Cc1noc([C@H]2C[C@H]3CN(C(=O)C4CCOCC4)CC[C@@H]3O2)n1 = 59
• Cc1cc(C(=O)N2CCC[C@]3(C[C@@H](OCC4CC4)CO3)C2)no1 = 21.8
• O=C1CC2(CCN(c3nccc(-c4cc(C(=O)O)ccn4)n3)CC2)CN1 = 64.9
